Please respond with reported IC50 for every item in the list.
system_name: adenosine A3 receptor (Homo sapiens (Human))
Sequence (P0DMS8 whole entry): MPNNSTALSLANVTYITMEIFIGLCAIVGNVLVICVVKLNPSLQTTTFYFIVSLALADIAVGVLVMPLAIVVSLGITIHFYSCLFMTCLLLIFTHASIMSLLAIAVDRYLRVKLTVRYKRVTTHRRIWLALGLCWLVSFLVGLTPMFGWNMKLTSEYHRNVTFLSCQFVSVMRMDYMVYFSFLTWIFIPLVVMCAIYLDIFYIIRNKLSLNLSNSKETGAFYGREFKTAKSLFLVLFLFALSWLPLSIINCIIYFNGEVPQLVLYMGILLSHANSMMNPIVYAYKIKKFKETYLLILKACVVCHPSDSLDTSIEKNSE
test_method_notes: Adenosine receptor activity assay (Table 1), A3 cAMP
Assay type: biochemical

Task: IC50 lookup needed for C[C@H](Nc1nc(C(=O)NCCc2cccc(O)c2)c2sccc2n1)c1cncc(F)c1 , thanks.
Output: 50 to 100 nM

Task: IC50 lookup needed for Cc1cc2nc(N[C@@H](C)c3cncc(F)c3)nc(C(=O)N3CC(CNC(=O)OC(C)(C)C)C3)c2s1 , thanks.
Output: > 500 nM

Task: IC50 lookup needed for Cc1csc2c(C(=O)NCc3cccnc3)nc(N[C@@H](C)c3ccccn3)nc12 , thanks.
Output: > 500 nM

Task: IC50 lookup needed for CC(=O)NC1CN(C(=O)c2nc(N[C@@H](C)c3cncc(F)c3)nc3ccsc23)C1 , thanks.
Output: > 500 nM

====

system_name: adenosine A2A receptor (Homo sapiens (Human))
Sequence (P29274 whole entry): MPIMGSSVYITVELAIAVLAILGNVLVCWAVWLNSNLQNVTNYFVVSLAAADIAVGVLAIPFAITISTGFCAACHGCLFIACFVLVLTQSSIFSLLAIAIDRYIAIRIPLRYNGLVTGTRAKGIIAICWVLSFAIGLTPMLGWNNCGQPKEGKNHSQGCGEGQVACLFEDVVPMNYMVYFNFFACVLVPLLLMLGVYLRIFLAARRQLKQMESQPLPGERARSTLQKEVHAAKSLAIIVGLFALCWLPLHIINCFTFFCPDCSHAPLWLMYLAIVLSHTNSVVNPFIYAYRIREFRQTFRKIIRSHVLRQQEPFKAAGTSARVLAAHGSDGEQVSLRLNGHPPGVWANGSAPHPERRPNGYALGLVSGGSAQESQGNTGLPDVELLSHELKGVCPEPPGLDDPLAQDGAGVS
test_method_notes: Adenosine receptor activity assay (Table 1), A2A activity
Format: biochemical
test_conditions: read-out: Ave A2A cAMP IC50
Please respond with reported IC50 for every item in the list.

Task: IC50 lookup needed for C[C@H](Nc1nc(C(=O)N2CC(CN(C)C(=O)CC(C)(C)C)C2)c2sccc2n1)c1cncc(F)c1 , thanks.
Output: 50 to 100 nM

Task: IC50 lookup needed for C[C@H](Nc1nc(C(=O)N2CCCC2)c2sccc2n1)c1ccncc1 , thanks.
Output: 100 to 500 nM

Task: IC50 lookup needed for C[C@H](Nc1nc(C(=O)N2CCC2)c2sccc2n1)c1cccnc1 , thanks.
Output: 100 to 500 nM

Task: IC50 lookup needed for C[C@H](Nc1nc(C(=O)N2CCC(C(=O)NOC(C)(C)C)C2)c2sccc2n1)c1cncc(F)c1 (stereo partly shown) , thanks.
Output: < 10 nM

====

system_name: adenosine A2B receptor (Homo sapiens (Human))
Sequence (P29275 whole entry): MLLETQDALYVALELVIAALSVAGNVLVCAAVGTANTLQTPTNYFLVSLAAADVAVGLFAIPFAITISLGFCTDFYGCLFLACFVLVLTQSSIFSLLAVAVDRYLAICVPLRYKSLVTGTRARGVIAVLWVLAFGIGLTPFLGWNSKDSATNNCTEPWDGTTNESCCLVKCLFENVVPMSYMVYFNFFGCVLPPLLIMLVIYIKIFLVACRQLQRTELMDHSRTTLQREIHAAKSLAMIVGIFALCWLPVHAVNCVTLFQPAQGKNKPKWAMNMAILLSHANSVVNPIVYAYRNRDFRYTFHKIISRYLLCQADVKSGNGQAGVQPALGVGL
test_method_notes: Adenosine receptor activity assay (Table 1), A2B activity
Assay type: biochemical
test_conditions: read-out: Ave A2B cAMP IC50
measure_name: IC50

Task: IC50 lookup needed for COC1CN(C(=O)c2nc(N[C@@H](C)c3cncc(F)c3)nc3ccsc23)C1 , thanks.
Output: < 10 nM

Task: IC50 lookup needed for Cc1cc2nc(N[C@@H](C)c3cncc(F)c3)nc(C(=O)NCC(C)(C)O)c2s1 , thanks.
Output: < 10 nM

Task: IC50 lookup needed for CCNC(=O)CC1CN(C(=O)c2nc(N[C@@H](C)c3cncc(F)c3)nc3cc(C)sc23)C1 , thanks.
Output: < 10 nM

Task: IC50 lookup needed for O=C(NCc1cncc(F)c1)c1nc(NCc2cncc(F)c2)nc2ccsc12 , thanks.
Output: 100 to 500 nM

Task: IC50 lookup needed for CNc1cc2nc(N[C@@H](C)c3ccccn3)nc(C(=O)N3CC[C@@H](O)C3)c2s1 , thanks.
Output: 10 to 50 nM

Task: IC50 lookup needed for Cc1cc2nc(N[C@@H](C)c3ccccn3)nc(C(=O)N3CC(C(=O)OC(C)(C)C)C3)c2s1 , thanks.
Output: 10 to 50 nM

Task: IC50 lookup needed for C[C@H](Nc1nc(C(=O)NCCNC(=O)C(C)(C)C)c2sccc2n1)c1cncc(F)c1 , thanks.
Output: 100 to 500 nM

Task: IC50 lookup needed for Cc1csc2c(C(=O)NCCc3cccc(O)c3)nc(N[C@@H](C)c3ccccn3)nc12 , thanks.
Output: 50 to 100 nM
